Data provenance: the RNAGym collection of RNA variant scans (doi:10.1101/gad.245936.114)

B1: tRNA (parent)
chain: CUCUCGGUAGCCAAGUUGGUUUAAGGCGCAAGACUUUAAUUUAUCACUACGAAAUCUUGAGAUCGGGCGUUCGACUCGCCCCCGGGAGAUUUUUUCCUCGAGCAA

Variants of: B1
run-description: nonsense suppression (GFP-seq) (ratio to wild type); higher = more function; SUP4oc tRNA, yeast GFP reporter sort-seq
This sample holds only a part of the variants without activity.
measurement-type: nonsense suppression

# mutation-id, test-value
measured = [
    ("G15U U70G", "≤ 0.026"),
    ("C1U A62G C80A", "≤ 0.026"),
    ("A24U A62C", "≤ 0.026"),
    ("G19U G28A C56G", "≤ 0.026"),
    ("U21A U22G U76A C77A G88A", "≤ 0.026"),
    ("G6U C81A", "≤ 0.026"),
    ("U2G A33C A60U G73C", "≤ 0.026"),
]
